For each entry below, report its MIC Enterococcus faecalis (GC 4552) value.
- System: Enterococcus sp.
- PROCEDURE_SUMMARY: in vitro antibacterial evaluation, MIC by broth dilution
- Assay type: cell-based
- TEST_PARAMETERS: broth dilution, 18 hours at 35° C.
- Excerpt: Methods for in vitro Antibacterial Evaluation (Table 1) […]
Numbered stars: 1 amine (or outer) side, 2 acyl side, 3 side chain; on linkers, the order of the positions; unused ones are H or OH. Square brackets hold non-standard residues; d marks the D form. Peptide text beside a SMILES is read from it. ξ: configuration not given here. X3 = CC1(C)OCC2OC(N3C(=N)NCC3C(O)C(N[*:1])C(=O)[*:2])C3OC(C)(C)OC3C2O1; ξEnduracididine(βξ-OH,4'ξ) = N=C1NCC(C(O)C(N)C(=O)O)N1; ξPhe(βξ-Me) = CC(c1ccccc1)C(N)C(=O)O

### Prompt Which measured MIC Enterococcus faecalis (GC 4552) value corresponds to COc1ccc2cc(COCC3OC(OC4C(CO)OC(Oc5ccc(CC6NC(=O)C(C(C)c7ccccc7)NC(=O)CNC(=O)C(CO)NC(=O)C(CC7CNC(=N)N7C7OC(CO)C(O)C(O)C7O)NC(=O)C(CC7CNC(=N)N7)NC6=O)cc5)C(O)C4O)C(O)C(O)C3O)ccc2c1 (centres unmarked) [Example 245] ?
### Response 16 µg/mL

### Prompt Using the record for COc1ccc2cc(COC3C(CO)OC(OC4C(CO)OC(Oc5ccc(CC6NC(=O)C(C(C)c7ccccc7)NC(=O)CNC(=O)C(CO)NC(=O)C(CC7CNC(=N)N7C7OC(CO)C(O)C(O)C7O)NC(=O)C(CC7CNC(=N)N7)NC6=O)cc5)C(O)C4O)C(O)C3O)ccc2c1 (centres unmarked) [Example 245a] , report its MIC Enterococcus faecalis (GC 4552).
### Response 8 µg/mL

### Prompt Sample CCCCCCN=C1NCC(C(O)C2NC(=O)C(C(O)C3CNC(=N)N3)NC(=O)C(Cc3ccc(OC4OC(CO)C(OC5OC6COC7(OC6C(O)C5O)C5CC6CC(C5)CC7C6)C(O)C4O)cc3)NC(=O)C(C(C)c3ccccc3)NC(=O)CNC(=O)C(CO)NC2=O)N1C1OC(CO)C(O)C(O)C1O (centres unmarked) [Example 84] — what was its MIC Enterococcus faecalis (GC 4552)?
### Response 8 µg/mL

### Prompt Can you look up the measured MIC Enterococcus faecalis (GC 4552) of CCCCCNC(=O)OCC1OC(OC2C(CO)OC(Oc3ccc(CC4NC(=O)C(C(C)c5ccccc5)NC(=O)CNC(=O)C(CO)NC(=O)C(C(O)C5CNC(=N)N5C5OC(CO)C(O)C(O)C5O)NC(=O)C(C(O)C5CNC(=N)N5)NC4=O)cc3)C(O)C2O)C(O)C(O)C1O (centres unmarked) [Example 251b] for me?
### Response 64 µg/mL

### Prompt Returns the measured MIC Enterococcus faecalis (GC 4552) for the input molecule. Input: CC(C)=CCCC(C)=CCCC(C)=CCOc1cccc(C2OCC3OC(OC4C(CO)OC(Oc5ccc(CC6NC(=O)C(C(C)c7ccccc7)NC(=O)CNC(=O)C(CO)NC(=O)C(C(O)C7CNC(=N)N7C7OC(CO)C(O)C(O)C7O)NC(=O)C(C(O)C7CNC(=N)N7)NC6=O)cc5)C(O)C4O)C(O)C(O)C3O2)c1 (centres unmarked) [Example 185]
### Response >64 µg/mL

### Prompt Entry CC(c1ccccc1)C1NC(=O)CNC(=O)C(CO)NC(=O)C(C(O)C2CNC(=N)N2C2OC3COC(C)(C)OC3C3OC(C)(C)OC32)NC(=O)C(C(O)C2CNC(=N)N2)NC(=O)C(Cc2ccc(O)cc2)NC1=O (stereo not drawn) [Example 247] (cyclo(G[ξPhe(βξ-Me)]Y[ξEnduracididine(βξ-OH,4'ξ)][X3]S); configuration not given here) has what MIC Enterococcus faecalis (GC 4552)?
### Response >64 µg/mL

### Prompt For CC(c1ccc(Cl)cc1)C1NC(=O)CNC(=O)C(CO)NC(=O)C(C(O)C2CNC(=N)N2C2OC(CO)C(O)C(O)C2O)NC(=O)C(C(O)C2CNC(=N)N2)NC(=O)C(Cc2ccc(OC3OC(CO)C(OC4OC5COC(c6ccccc6)OC5C(O)C4O)C(O)C3O)cc2)NC1=O (centres unmarked) [Example 195] , what is its reported MIC Enterococcus faecalis (GC 4552)?
### Response 0.5 µg/mL

### Prompt What value of MIC Enterococcus faecalis (GC 4552) has been recorded for this entry: CC(c1ccccc1)C1NC(=O)CNC(=O)C(CO)NC(=O)C(CC2CNC(=N)N2C2OC(CO)C(O)C(O)C2O)NC(=O)C(CC2CNC(=N)N2)NC(=O)C(Cc2ccc(OC3OC(CO)C(OC4OC5COC(c6ccc(OCc7ccccc7)cc6)OC5C(O)C4O)C(O)C3O)cc2)NC1=O (centres unmarked) [Example 191]
### Response 16 µg/mL

### Prompt Entry CC(c1ccccc1)C1NC(=O)CNC(=O)C(CO)NC(=O)C(C(O)C2CNC(=N)N2C2OC(CO)C(O)C(O)C2O)NC(=O)C(C(O)C2CNC(=N)N2)NC(=O)C(Cc2ccc(OC3OC(CO)C(OC4OC5COC6(CCC(C(C)(C)C)CC6)OC5C(O)C4O)C(O)C3O)cc2)NC1=O (centres unmarked) [Example 208] has what MIC Enterococcus faecalis (GC 4552)?
### Response 8 µg/mL

### Prompt Which MIC Enterococcus faecalis (GC 4552) is listed for COc1ccc2cc(COC3C(OC4C(CO)OC(Oc5ccc(CC6NC(=O)C(C(C)c7ccccc7)NC(=O)CNC(=O)C(CO)NC(=O)C(C(O)C7CNC(=N)N7C7OC(CO)C(O)C(O)C7O)NC(=O)C(C(O)C7CNC(=N)N7)NC6=O)cc5)C(O)C4O)OC(CO)C(O)C3O)ccc2c1 (centres unmarked) [Example 230c] ?
### Response >128 µg/mL

### Prompt Looking for the measured MIC Enterococcus faecalis (GC 4552) of COc1ccc2cc(COC3C(CO)OC(OC4C(CO)OC(Oc5ccc(CC6NC(=O)C(C(C)c7ccccc7)NC(=O)CNC(=O)C(CO)NC(=O)C(C(O)C7CNC(=N)N7C7OC(CO)C(O)C(O)C7O)NC(=O)C(C(O)C7CNC(=N)N7)NC6=O)cc5)C(O)C4O)C(O)C3O)ccc2c1 (centres unmarked) [Example 230a] , can you help?
### Response 2 to 4 µg/mL

### Prompt Suppose we examine the molecule CC(c1ccccc1)C1NC(=O)CNC(=O)C(CO)NC(=O)C(C(O)C2CNC(=N)N2C2OC(COC(=O)C(c3ccccc3)c3ccccc3)C(O)C(O)C2O)NC(=O)C(C(O)C2CNC(=N)N2)NC(=O)C(Cc2ccc(OC3OC(CO)C(OC4OC(CO)C(O)C(O)C4O)C(O)C3O)cc2)NC1=O (centres unmarked) [Example 96] ; what MIC Enterococcus faecalis (GC 4552) value has been reported?
### Response >128 µg/mL

### Prompt I am curious: what MIC Enterococcus faecalis (GC 4552) value has been reported for CC(c1ccccc1)C1NC(=O)CNC(=O)C(CO)NC(=O)C(C(O)C2CNC(=N)N2C2OC(CO)C(O)C(O)C2O)NC(=O)C(C(O)C2CNC(=N)N2)NC(=O)C(Cc2ccc(OC3OC(CO)C(OC4OC(COC(=O)NCc5ccccc5)C(O)C(O)C4O)C(O)C3O)cc2)NC1=O (centres unmarked) [Example 257b] ?
### Response >0.5 µg/mL

### Prompt What does the record list as MIC Enterococcus faecalis (GC 4552) for CC(c1ccccc1)C1NC(=O)CNC(=O)C(CO)NC(=O)C(C(O)C2CNC(=N)N2C2OC(CO)C(O)C(O)C2O)NC(=O)C(C(O)C2CNC(=N)N2)NC(=O)C(Cc2ccc(OC3OC(CO)C(OC4OC(COCC=Cc5ccc(N(C)C)cc5)C(O)C(O)C4O)C(O)C3O)cc2)NC1=O (centres unmarked) [Example 243] ?
### Response >64 µg/mL
